This collection of values is drawn from patent US20230107538A1.

Target: human PPARα ligand binding domain (LBD) (Homo sapiens)
Construct: human PPARα (S167-Y468); expressed in transfected cells; host or cells: HEK293
Sequence (Q07869 167-468): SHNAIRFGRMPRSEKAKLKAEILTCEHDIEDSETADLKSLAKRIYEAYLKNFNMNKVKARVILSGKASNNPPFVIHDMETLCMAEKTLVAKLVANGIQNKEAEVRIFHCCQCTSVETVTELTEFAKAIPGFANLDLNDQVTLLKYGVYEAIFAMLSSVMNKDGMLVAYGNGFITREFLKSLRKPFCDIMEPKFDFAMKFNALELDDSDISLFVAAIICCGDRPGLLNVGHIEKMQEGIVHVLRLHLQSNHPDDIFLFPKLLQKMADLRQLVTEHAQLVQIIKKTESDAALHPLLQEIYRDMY
Assay: Cell-based GAL4 PPAR transactivation assay in HEK293 cells, PPARα
Conditions: 24 h
Procedure: The peroxisome proliferator-activated receptors (PPARs), PPARα, PPARδ, and PPARγ are ligand-dependent transcription factors that control expression of several key metabolism-associated genes. […] Cell-based PPAR transactivation assay. […] Luciferase activity was determined with the Dual Glo™ luciferase assay (Promega). […]
Think of 30% as a floor: if PPARα (GAL4 reporter) % efficacity relative to GW7647 stands on it or above, it is satisfied; beneath it, not satisfied.

See these solved cases before continuing.
- Compound: "CC1(C)CC1CCCCC/C=C/C(=O)[O-].[Na+] (stereo not shown)"
  Experimental System: "human PPARα ligand binding domain (LBD) (Homo sapiens)"
  Discrete Label: "not satisfied"
- Compound: "[2H]C1([2H])C(CCCCCC)C1CC(=O)[O-].[Na+] (stereo not shown)"
  Experimental System: "human PPARα ligand binding domain (LBD) (Homo sapiens)"
  Discrete Label: "not satisfied"
- Compound: "CC1(C)CC1CCCCC1CC1C(=O)[O-].[Na+] (stereo not shown)"
  Experimental System: "human PPARα ligand binding domain (LBD) (Homo sapiens)"
  Discrete Label: "satisfied"
- Compound: "CCCCCCC1C(CC(=O)[O-])C1(C)C.[Na+] (stereo not shown) [drawing 322]"
  Experimental System: "human PPARα ligand binding domain (LBD) (Homo sapiens)"
  Discrete Label: "satisfied"
- Compound: "CCCCCCCC1CC1C(=O)[O-].[Na+] (stereo not shown)"
  Experimental System: "human PPARα ligand binding domain (LBD) (Homo sapiens)"
  Discrete Label: "satisfied"
- Compound: "CCCCCCC1CC1C(=O)C(=O)[O-].[Na+] (stereo not shown)"
  Experimental System: "human PPARα ligand binding domain (LBD) (Homo sapiens)"
  Discrete Label: "satisfied"

Next item in the queue.
# bool: PPARα (GAL4 reporter) % efficacity relative to GW7647 of CCCCCCC1C(CC(=O)[O-])C1(C)C.[Na+] (stereo not shown) [drawing 323] >= 30%
satisfied

----------
The compounds listed here are annotated with their pEC50.
Biological target: human GPR84 (Homo sapiens, UniProt Q9NQS5)
Sequence (Q9NQS5 whole entry): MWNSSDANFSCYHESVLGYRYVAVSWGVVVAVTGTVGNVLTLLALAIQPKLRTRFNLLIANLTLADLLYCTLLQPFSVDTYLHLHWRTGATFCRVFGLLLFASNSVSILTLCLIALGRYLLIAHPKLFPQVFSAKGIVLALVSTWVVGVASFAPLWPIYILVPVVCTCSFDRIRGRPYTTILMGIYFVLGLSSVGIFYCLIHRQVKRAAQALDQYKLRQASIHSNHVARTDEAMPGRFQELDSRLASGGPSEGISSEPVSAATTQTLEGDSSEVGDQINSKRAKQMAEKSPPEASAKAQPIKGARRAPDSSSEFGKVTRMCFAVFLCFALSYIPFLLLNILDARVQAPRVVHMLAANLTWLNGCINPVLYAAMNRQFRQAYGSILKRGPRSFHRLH
Test: GPR84 Gαi BRET biosensor, agonist activity
Settings: HEK293 cells
In textbook form, pEC50 equals minus log to base ten of the concentration in mol/L.

- Compound: "CCCCCCC1CC(C(=O)O)C1 (stereo not drawn)"
  Readout Label: "pEC50"
  Recorded Measurement: 4.14

Alright, here's another compound for you.
What value of measured pEC50 is listed for CCCCCCC1CC1C(=O)C(=O)O (stereo not drawn) ?
4.43

----------
Molecular target: UniProt:Q9NQS5
Assay: GPR84 Gαi BRET biosensor, agonist activity
Settings: HEK293 cells
Readout Label: log10(EC50) (log10 of the value in µM)
Heads up: the numbers are on a log10 scale; they represent EC50 in µM.

- Compound: "CCCCCCCC1CC1C(=O)O (centres unmarked)"
  Recorded Measurement: 1.11
- Compound: "[2H]C1([2H])C(CCCCCCC)C1CC(=O)[O-].[Na+] (centres unmarked)"
  Recorded Measurement: 1.36
- Compound: "CC1(C)CC1CCCCC/C=C/C(=O)O (centres unmarked)"
  Recorded Measurement: 0.78
- Compound: "CCCCCCC1OC1CC(=O)O (centres unmarked)"
  Recorded Measurement: 2.06
- Compound: "CC1(C)CC1CCCCCCCC(=O)O (centres unmarked)"
  Recorded Measurement: 0.70

Field: log10(EC50) (UniProt:Q9NQS5). Entry: CCCCCC1C(CCC(=O)O)C1(F)F (centres unmarked)
1.90

How about this compound: CCCCCC1CC(CC(=O)O)C1 (centres unmarked)
1.54
